# credit: ChEMBL document CHEMBL3045800

# Test system: Oryza sativa
# Format: functional,  cv. Nipponbare
Measured metric: ED80 (mg)
One number for each entry, in mg.

Cn1nc(Cl)cc1CC(=O)O    5

Quick batch: ED80 for everything below.
1. COC(=O)c1cc(Cl)nn1C
2. Cc1cc(C(=O)O)n(C)n1
3. Cn1nc(Cl)cc1C(=O)O
4. Cn1nc(Br)cc1C(=O)O
5. CC(=O)c1cc(Cl)nn1C
6. Cn1cc(C(=O)O)c(Cl)n1

0.05
0.5
0.05
0.05
5
0.5
